All figures here come from patent EP4613329A1.

target: BRD2 (BD1) (Homo sapiens); construct: a bromodomain of BRD2 (BD1) and BRD3 (BD1), one of the BRD protein family; experiment: Binding inhibitory effect on BRD2 protein (AlphaScreen, GST-BRD2 (BD1) / biotinylated acetyl-histone H4 peptide); conditions: 100 nM GST-BRD2 (BD1), 100 nM biotinylated acetyl-histone H4 (Lys5, 8, 12, 16) peptide
Sequence (P25440 74-180 limits assumed, species assumed): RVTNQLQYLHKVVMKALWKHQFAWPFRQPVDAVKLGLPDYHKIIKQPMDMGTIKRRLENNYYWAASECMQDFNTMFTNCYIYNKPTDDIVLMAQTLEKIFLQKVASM
pIC50: −log10 of the molar value.
Below is a list of entries, each paired with its recorded pIC50 value.

MOLECULE | EXPERIMENTAL SYSTEM | pIC50
CN1Cc2c(cccc2-c2ccccc2-c2ccc(CNC3CCCC3)o2)C1=O | BRD2 (BD1) (Homo sapiens) | 4.74
CNC(=O)C1(Cc2ccccc2)CCN(Cc2ccc(-c3ccccc3-c3cccc4c3CN(C)C4=O)o2)CC1 | BRD2 (BD1) (Homo sapiens) | 4.86
CNC(=O)C1(Cc2ccccc2)CCCN1Cc1ccc(-c2ccccc2-c2cccc3c2CN(C)C3=O)o1 (stereo not shown) | BRD2 (BD1) (Homo sapiens) | 4.96
CNC(=O)C1(Cc2ccc(F)cc2)CCN(Cc2ccc(-c3ccccc3-c3cccc4c3CN(C)C4=O)o2)CC1 | BRD2 (BD1) (Homo sapiens) | 4.86

----------
target: BRD3 (BD1) (Homo sapiens); construct: a bromodomain of BRD2 (BD1) and BRD3 (BD1), one of the BRD protein family; GST; assay: Binding inhibitory effect on BRD3 protein (same manner as Experimental Example 1-1)
Sequence (Q15059 34-140 limits assumed, species assumed): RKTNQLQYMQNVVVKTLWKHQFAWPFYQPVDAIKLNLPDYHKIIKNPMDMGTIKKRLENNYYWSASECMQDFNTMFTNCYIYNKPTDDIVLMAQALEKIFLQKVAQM

COMPOUND | IC50
CC(C)NCc1ccc(-c2ccccc2-c2cccc3c2CN(C)C3=O)o1 [Compound 8] | 2.2 µM
CN1Cc2c(cccc2-c2ccccc2-c2ccc(CNC3CCCC3)o2)C1=O [Compound 7] | 4.35 µM
CNC(=O)C1(C)CN(Cc2oc(-c3ccccc3-c3cccc4c3CN(C)C4=O)cc2C)CCC1O (stereo not shown) [Compound 41] | 2.14 µM
CNC(=O)C1(Cc2ccc(F)cc2)CCN(Cc2ccc(-c3ccccc3-c3cccc4c3CN(C)C4=O)o2)CC1 [Compound 21] | 1.16 µM
CNC(=O)C1(Cc2ccccc2)CCN(Cc2ccc(-c3ccccc3-c3cccc4c3CN(C)C4=O)o2)CC1 [Compound 19] | 1.4 µM
COCNCc1ccc(-c2ccccc2-c2cccc3c2CN(C)C3=O)o1 [Compound 4] | 4.43 µM
CN1Cc2c(cccc2-c2ccccc2-c2ccc(CN3CCN(C(C)(C)C(N)=O)CC3)o2)C1=O [Compound 16] | 1.75 µM
CN1Cc2c(cccc2-c2ccccc2-c2ccc(CN3CCN(S(C)(=O)=O)CC3)o2)C1=O [Compound 11] | 3.71 µM
CN1Cc2c(cccc2-c2ccccc2-c2ccc(COCN3CCC(F)(F)CC3)o2)C1=O [Compound 37] | 4.76 µM
CNC(=O)CC1C(=O)NCCN1Cc1ccc(-c2ccccc2-c2cccc3c2CN(C)C3=O)o1 (stereo not shown) [Compound 26] | 1.38 µM
CCC1(C(=O)NC)CCCN(C(=O)c2ccc(-c3ccccc3-c3cccc4c3CN(C)C4=O)o2)C1 (stereo not shown) [Compound 36] | 4.26 µM
CN1Cc2c(cccc2-c2ccccc2-c2ccc(CN3CCOCC3)o2)C1=O [Compound 13] | 3.65 µM
CN1Cc2c(cccc2-c2ccccc2-c2ccc(CN3CCC(Cc4ccncc4)(C(N)=O)CC3)o2)C1=O [Compound 31] | 2.78 µM
CNC(=O)C1(Cc2ccc(F)cc2)CCN(C(=O)c2ccc(-c3ccccc3-c3cccc4c3CN(C)C4=O)o2)CC1 [Compound 32] | 3.99 µM
CNC(=O)C1(C)CN(C(=O)c2ccc(-c3ccccc3-c3cccc4c3CN(C)C4=O)o2)CCC1O (stereo not shown) [Compound 34] | 4.68 µM
CNC(=O)C1(Cc2ccc(F)cc2)CCN(Cc2oc(-c3ccccc3-c3cccc4c3CN(C)C4=O)cc2C)CC1 [Compound 39] | 4.16 µM
